Where these numbers come from: patent US20110039825A1

Kindly state imidazoline I2 receptor % inhibition for each of the entries shown.
# System: imidazoline receptor I2
# assay_info: radioligand binding to imidazoline receptor I2 ([3H] Idazoxan)
# Parameters: species or system rat
# run_conditions: 10 μM ligand
Answers are plain numbers, in %.

Solved entries:
| compound | imidazoline I2 receptor % inhibition, % |
| --- | --- |
| Cc1ccc2c(c1)[C@@H]1CN(C)CCC[C@@H]1N2CCc1cccnc1.Cl.Cl.Cl (relative stereo) [1.6.1(1)•3HCl] | 80 |
| Cc1ccc2c(c1)c1c(n2CCc2ccc(C)nc2)CCCN(C)C1 | 80 |

// moving on: another record for imidazoline I2 receptor % inhibition
API: value(readout=imidazoline I2 receptor % inhibition, system=imidazoline receptor I2) for record Cc1ccc2c(c1)c1c(n2CCc2cccnc2)CCCN(C)C1.Cl.Cl [1.2.2(3-2)•2HCl]
63
